tested on: juvenile S. mansoni; assay: In vitro drug sensitivity assay on juvenile S. mansoni; type: cell-based, Schistosoma mansoni; conditions: Schistosoma mansoni; 72 h incubation, 37 °C, 5% CO2
reported property: EC50
Write the quantity with the unit trailing the number.

INSERT INTO results (compound, measured_on, reported_property, observed_measurement) VALUES
  ('O=C1NCCN1c1ncc([N+](=O)[O-])s1', 'juvenile S. mansoni', 'EC50', '1.8 µM');

Okay, now this compound:
Q: Give the reported value of EC50 for this record: O=C(Nc1ncc([N+](=O)[O-])s1)C12CC3CC(CC(C3)C1)C2 [Compound D1]
Ans: 29.2 µM

====

Collected mean drug effect at 10 µM on adult S. mansoni, 48 h values appear next to each entry.
test system: adult S. mansoni; test: In vitro drug sensitivity assay on adult S. mansoni (microscopic viability scoring); assay type: cell-based, Schistosoma mansoni; details: 10 µM, 48 h, in percentage of DMSO control
// note: answer is a bare numeric in %

The following compounds have reported results that may help.
INSERT INTO results (compound, observed_measurement) VALUES
  ('C=CC([c-]1cccc1)N1CCN(c2ncc([N+](=O)[O-])s2)C1=O.[Fe+2].c1cc[cH-]c1 (racemic)', 57.59),
  ('O=C(Nc1ncc([N+](=O)[O-])s1)C12CC3CC(CC(C3)C1)C2 [Compound D1]', 66.75),
  ('O=C1N(C[c-]2cccc2)CCN1c1ncc([N+](=O)[O-])s1.[Ru+2].c1cc[cH-]c1', 44.99),
  ('O=C([c-]1cccc1)N1CCN(c2ncc([N+](=O)[O-])s2)C1=O.[Fe+2].c1cc[cH-]c1', 46.61),
  ('O=C1N(C[c-]2cccc2)CCN1c1ncc([N+](=O)[O-])s1.[Fe+2].c1cc[cH-]c1', 44.28);

Okay, now this compound:
Q: Give the reported value of mean drug effect at 10 µM on adult S. mansoni, 48 h for this record: `O=C(Nc1ncc([N+](=O)[O-])s1)[c-]1cccc1.[Ru+2].c1cc[cH-]c1`
Ans: 44.35

====

Collected EC50 values appear next to each entry.
test system: adult S. mansoni; experiment: In vitro drug sensitivity assay on adult S. mansoni (microscopic viability scoring); type: cell-based, Schistosoma mansoni; conditions: Schistosoma mansoni, 72 h, 72 h drug exposure, 37 °C, 5% CO2; read-out: EC50 on adult S. mansoni, 72 h

The following compounds have reported results that may help.
INSERT INTO measurements (compound, reported_property, observed_measurement) VALUES
  ('O=C(Nc1ncc([N+](=O)[O-])s1)C12CC3CC(CC(C3)C1)C2 [Compound D1]', 'EC50', '3.7 µM'),
  ('O=C1N(Cc2ccccc2)CCN1c1ncc([N+](=O)[O-])s1', 'EC50', '> 50 µM'),
  ('Nc1ncc([N+](=O)[O-])s1', 'EC50', '> 50 µM');

Okay, now this compound:
Q: Would you please give the reported EC50 of `O=C1NCCN1c1ncc([N+](=O)[O-])s1` with adult S. mansoni?
Ans: 5.6 µM

====

tested on: adult S. mansoni; assay: In vitro drug sensitivity assay on adult S. mansoni (microscopic viability scoring); assay type: cell-based, Schistosoma mansoni; settings: 50 µM, 72 h incubation, normalized to DMSO control; active if ≥60%
reported property: drug effect at 50 µM on adult S. mansoni

INSERT INTO measurements (compound_string, observed_measurement) VALUES
  ('Nc1ncc([N+](=O)[O-])s1', 'No drug effect'),
  ('O=C1N(Cc2ccccc2)CCN1c1ncc([N+](=O)[O-])s1', 'No drug effect'),
  ('O=C1N(CCCCCC[c-]2cccc2)CCN1c1ncc([N+](=O)[O-])s1.[Fe+2].c1cc[cH-]c1', 'No drug effect'),
  ('O=C1NCCN1c1ncc([N+](=O)[O-])s1', '83%');

Q: Give the reported value of drug effect at 50 µM on adult S. mansoni for this record: `O=C(Nc1ncc([N+](=O)[O-])s1)[c-]1cccc1.[Fe+2].c1cc[cH-]c1`
Ans: No drug effect
